Provenance of the data: the Immune Epitope Database (IEDB)

Assign pKd to each entry below.
- Tested target: HLA-A*01:01
- Protocol details: IEDB peptide-MHC binding, purified MHC/competitive/radioactivity; filed as Kd, often an IC50 or EC50 that approximates it; bounds were set here for any values at or beyond the usual limits of such assays
- Condition set: source organism: Mycobacterium tuberculosis
Keep it numeric: pKd is minus log10 of the concentration in mol/L.

Request: Record "SSLGLPVSY" : what is its pKd with HLA-A*01:01?
Result: 5.02

Request: Record "VTPEQRPLY" : what is its pKd with HLA-A*01:01?
Result: 5.57

---

- Tested target: HLA-A*01:01
- Protocol details: IEDB peptide-MHC binding, purified MHC/competitive/radioactivity; bounds were set here for any values at or beyond the usual limits of such assays
- Condition set: source organism: Neisseria gonorrhoeae
pIC50: −log10 of the molar value.
Cut-off 7 on pIC50, inclusive. At or above means TRUE; below means FALSE.

Request: Could you tell me if the measured pIC50 of "NTFVQANLY" reaches 7 or more?
Result: FALSE

Request: Could you tell me if the measured pIC50 of "LTAGLDFAY" reaches 7 or more?
Result: TRUE

Request: Could you tell me if the measured pIC50 of "HSAEALQKY" reaches 7 or more?
Result: FALSE

Request: Could you tell me if the measured pIC50 of "ASADKPYSY" reaches 7 or more?
Result: FALSE

Request: Could you tell me if the measured pIC50 of "KAEVHTFYY" reaches 7 or more?
Result: FALSE

---

- Tested target: HLA-A*01:01
- Protocol details: IEDB peptide-MHC binding, purified MHC/competitive/radioactivity; bounds were set here for any values at or beyond the usual limits of such assays
- Condition set: source organism: Mycobacterium tuberculosis
Endpoint: IC50 (nM)
Express the result in nM but write the number alone.

Request: Item under review: "RSARASSRY" . Reported IC50?
Result: 622

Request: Item under review: "HTEFEGQVY" . Reported IC50?
Result: 6.8

Request: Item under review: "VAEGDTVIY" . Reported IC50?
Result: 840

---

- Tested target: HLA-A*01:01
- Protocol details: IEDB peptide-MHC binding, purified MHC/competitive/radioactivity; filed as Kd, often an IC50 or EC50 that approximates it; bounds were set here for any values at or beyond the usual limits of such assays
- Condition set: source organism: Clostridium perfringens
Endpoint: Kd (µM)
Express the result in µM but write the number alone.

Request: Item under review: "LGDGVKDHY" . Reported Kd?
Result: 11.6

---

Assign IC50 to each entry below.
- Tested target: HLA-A*01:01
- Protocol details: IEDB peptide-MHC binding, purified MHC/competitive/radioactivity; bounds were set here for any values at or beyond the usual limits of such assays
- Condition set: source organism: Homo sapiens
Express the result in nM but write the number alone.

Request: Record "GTQLFEDNY" : what is its IC50 with HLA-A*01:01?
Result: 237

Request: Record "YTAVVPLVY" : what is its IC50 with HLA-A*01:01?
Result: 1.5

Request: Record "ETLEEITGY" : what is its IC50 with HLA-A*01:01?
Result: 984

Request: Record "TQDLVQEKY" : what is its IC50 with HLA-A*01:01?
Result: 20

---

- Tested target: HLA-A*01:01
- Protocol details: IEDB peptide-MHC binding, purified MHC/competitive/radioactivity; bounds were set here for any values at or beyond the usual limits of such assays
- Condition set: source organism: Hepacivirus hominis
Endpoint: IC50 (nM)
Express the result in nM but write the number alone.

Request: Record "LTPRCMVDY" : what is its IC50 with HLA-A*01:01?
Result: 538

Request: Record "VQDCNCSIY" : what is its IC50 with HLA-A*01:01?
Result: 78

---

- Tested target: HLA-A*01:01
- Protocol details: IEDB peptide-MHC binding, purified MHC/competitive/radioactivity; filed as Kd, often an IC50 or EC50 that approximates it; bounds were set here for any values at or beyond the usual limits of such assays
- Condition set: source organism: Hepatitis B virus adw/Okinawa/PODW282
Endpoint: Kd (nM)
Express the result in nM but write the number alone.

Request: Item under review: "PLDKGIKPY" . Reported Kd?
Result: 2210

---

- Tested target: HLA-A*01:01
- Protocol details: IEDB peptide-MHC binding, purified MHC/competitive/radioactivity; filed as Kd, often an IC50 or EC50 that approximates it; bounds were set here for any values at or beyond the usual limits of such assays
- Condition set: source organism: Clostridium botulinum
pKd: −log10 of the molar value.
Assign pKd to each entry below.

Request: Item under review: "RNEFSNVEY" . Reported pKd?
Result: ≤ 4.30

Request: Item under review: "DMIVDAIPY" . Reported pKd?
Result: ≤ 4.30

Request: Item under review: "LHEYKQGDY" . Reported pKd?
Result: ≤ 4.30

---

Assign IC50 to each entry below.
- Tested target: HLA-A*01:01
- Protocol details: IEDB peptide-MHC binding, purified MHC/competitive/radioactivity; bounds were set here for any values at or beyond the usual limits of such assays
- Condition set: source organism: Neisseria gonorrhoeae
Express the result in µM but write the number alone.

Request: Item under review: "LTEIDIRDY" . Reported IC50?
Result: 0.065

Request: Item under review: "GTATYLPPY" . Reported IC50?
Result: 0.12

Request: Item under review: "LSGNGHFHY" . Reported IC50?
Result: 0.125
